The reported measurements were obtained from patent US9415087B2.

Record set of pIC50 for target or system human CypA (Homo sapiens, UniProt P62937).
One number for each entry, as −log10 of the molar value.

Recorded pIC50, per entry:
• CCOP(=O)(CC=CCC(C)C(O)C1C(=O)NC(CC)C(=O)N(C)CC(=O)N(C)C(CC(C)C)C(=O)NC(C(C)C)C(=O)N(C)C(CC(C)C)C(=O)NC(C)C(=O)NC(C)C(=O)N(C)C(CC(C)C)C(=O)N(C)C(CC(C)C)C(=O)N(C)C(C(C)C)C(=O)N1C)OCC (mixture of isomers) [Compound 1] = 8.04
• CCC1NC(=O)C(C(O)C(C)Cc2nc3ccc(C(=O)c4ccccc4)cc3[nH]2)N(C)C(=O)C(C(C)C)N(C)C(=O)C(CC(C)C)N(C)C(=O)C(CC(C)C)N(C)C(=O)C(C)NC(=O)C(C)NC(=O)C(CC(C)C)N(C)C(=O)C(C(C)C)NC(=O)C(CC(C)C)N(C)C(=O)CN(C)C1=O (stereo not shown) [Compound 4] = 7.85
• CCC1NC(=O)C(C(O)C(C)Cc2nc3ccc(C(=O)OC)cc3[nH]2)N(C)C(=O)C(C(C)C)N(C)C(=O)C(CC(C)C)N(C)C(=O)C(CC(C)C)N(C)C(=O)C(C)NC(=O)C(C)NC(=O)C(CC(C)C)N(C)C(=O)C(C(C)C)NC(=O)C(CC(C)C)N(C)C(=O)CN(C)C1=O (stereo not shown) [Compound 3] = 7.92

Dear colleague, I am looking for the recorded pIC50 of the following compound: CCC1NC(=O)C(C(O)C(C)Cc2nc3ccc(-c4nc5ccccc5s4)cc3[nH]2)N(C)C(=O)C(C(C)C)N(C)C(=O)C(CC(C)C)N(C)C(=O)C(CC(C)C)N(C)C(=O)C(C)NC(=O)C(C)NC(=O)C(CC(C)C)N(C)C(=O)C(C(C)C)NC(=O)C(CC(C)C)N(C)C(=O)CN(C)C1=O (stereo not shown) [Compound 5]
7.78
